- assay.system: T1, human IL-1α (human, UniProt P01583 113-271)
- T1 sequence (looked up): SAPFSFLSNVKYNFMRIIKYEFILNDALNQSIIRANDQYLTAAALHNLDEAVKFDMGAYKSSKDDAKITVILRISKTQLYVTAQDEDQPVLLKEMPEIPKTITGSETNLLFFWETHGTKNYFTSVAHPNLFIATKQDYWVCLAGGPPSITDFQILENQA
- test.method.notes: cell-based or functional assay
measured.parameter: MRC5 ND50 (nM)

The following binders have reported results that may help.
ABT1-96 (other, dAb, VH, to IL-1α; also called dAb ABT1-96) VH: EVQLLESGGGLVQPGGSLRLSCAASGFTFNQYNMFWVRQAPGKGLEWVSVISGSGRFTYYADSVKGRFTISRDNSKNTLYLQMNSLRAEDTAVYYCAKGWWRRDPPFDYWGQGTLVTVSS; 11
ABT1-141 (other, dAb, Vκ, to IL-1α; also called dAb ABT1-141) VL: DIQMTQSPSSLSASVGDRVTITCRASQWIQKQLAWYQQKPGKAPKLLIYSSSYLQSGVPSRFSGSGSGTDFTLTISSLQPEDFATYYCQQHLRVPFTFGQGTKVEIKR; 70
ABT1-95 (other, dAb, Vκ, to IL-1α; also called dAb ABT1-95) VL: DIQMTQSPSSLSASVGDRVTITCRASQPIHGNLRWYQQKPGKAPKLLIYNISNLQSGVPSRFSGSGSGTDFTLTISSLQPEDFATYYCQQGYRWPVTFGQGTKVEIKR; 700

A. ABT1-86 (other, dAb, VH, to IL-1α) VH: EVQLLESGGGLVQPGGSLRLSCAASGFTFDRYIMAWVRQAPGKGLEWVSSITPSGAATYYADSVKGRFTISRDNSKNTLYLQMNSLRAEDTAVYYCAEEPADRYSTWTFDYWGQGTLVTVSS
B. ABT1-122 (other, dAb, Vκ, to IL-1α) VL: DIQMTQSPSSLSASVGDRVTITCRASQPIWTELNWYQQKPGKAPKLLIYGSSSLQSGVPSRFSGSGSGTDFTLTISSLQPEDFATYYCQQFAYFPATFGQGTKVEIKR
Q) In the pair A and B , the larger recorded MRC5 ND50 belongs to which? Returns: label corresponding to the selected item.
A) A
(A: 900 nM, B: 50 nM)

The measured values listed here are drawn from patent US20090291081A1.
